# TARGET: T1, wildtype feline IL-31 protein (Feline_IL31_wildtype) (feline)
# T1 construct: Full length feline IL-31 with C-terminal His tag, secreted from ExpiCHO cells; also called fIL-31
# T1 chain: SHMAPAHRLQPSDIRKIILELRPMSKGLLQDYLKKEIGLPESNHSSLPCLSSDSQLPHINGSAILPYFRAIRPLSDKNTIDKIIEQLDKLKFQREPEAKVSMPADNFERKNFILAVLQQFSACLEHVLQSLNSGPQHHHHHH
# ASSAY DETAILS: SPR (Biacore), IL-31 on chip, 1:1 fit
QUANTITY: kon (M⁻¹ s⁻¹)
Answers are plain numbers, in M⁻¹ s⁻¹.

>  <BINDER>
Feline 15H05 1.1 (antibody, V domains shown, Feline heavy and kappa constant regions) VH: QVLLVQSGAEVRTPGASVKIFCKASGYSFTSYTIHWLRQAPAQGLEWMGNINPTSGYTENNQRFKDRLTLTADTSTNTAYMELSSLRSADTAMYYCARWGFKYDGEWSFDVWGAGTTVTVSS VL: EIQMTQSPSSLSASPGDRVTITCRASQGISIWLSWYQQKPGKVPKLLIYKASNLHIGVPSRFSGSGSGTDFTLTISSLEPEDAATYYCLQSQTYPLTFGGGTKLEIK

>  <kon, M⁻¹ s⁻¹>
97100

$$$$
>  <BINDER>
Feline 15H05 1.1 FW1_2 (antibody, V domains shown) VH: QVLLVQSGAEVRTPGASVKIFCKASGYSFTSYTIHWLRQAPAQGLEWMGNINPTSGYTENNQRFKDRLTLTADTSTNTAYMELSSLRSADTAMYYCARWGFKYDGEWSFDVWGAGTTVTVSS VL: DIQMNQSPSSLSASLGDTITVTCRASQGISIWLSWYQQKPGNIPKVLINKASNLHIGVPSRFSGSGSGTDFTLTISSLEPEDAATYYCLQSQTYPLTFGGGTKLEIK

>  <kon, M⁻¹ s⁻¹>
7560

$$$$

Here is the next item to consider.
Note kon for the binder shown: Feline 15H05 3.2 (antibody, V domains shown, Feline heavy and kappa constant regions) VH: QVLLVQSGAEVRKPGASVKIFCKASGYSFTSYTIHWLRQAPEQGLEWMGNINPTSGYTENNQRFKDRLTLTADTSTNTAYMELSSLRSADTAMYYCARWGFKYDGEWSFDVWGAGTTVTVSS VL: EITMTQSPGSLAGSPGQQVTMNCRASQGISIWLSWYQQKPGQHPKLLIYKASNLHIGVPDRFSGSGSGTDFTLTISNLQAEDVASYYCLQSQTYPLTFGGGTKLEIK 132000
